- target under test: Apoptotic protease-activating factor 1 (Homo sapiens) (UniProt O14727)
- Sequence (O14727 whole entry, looked up): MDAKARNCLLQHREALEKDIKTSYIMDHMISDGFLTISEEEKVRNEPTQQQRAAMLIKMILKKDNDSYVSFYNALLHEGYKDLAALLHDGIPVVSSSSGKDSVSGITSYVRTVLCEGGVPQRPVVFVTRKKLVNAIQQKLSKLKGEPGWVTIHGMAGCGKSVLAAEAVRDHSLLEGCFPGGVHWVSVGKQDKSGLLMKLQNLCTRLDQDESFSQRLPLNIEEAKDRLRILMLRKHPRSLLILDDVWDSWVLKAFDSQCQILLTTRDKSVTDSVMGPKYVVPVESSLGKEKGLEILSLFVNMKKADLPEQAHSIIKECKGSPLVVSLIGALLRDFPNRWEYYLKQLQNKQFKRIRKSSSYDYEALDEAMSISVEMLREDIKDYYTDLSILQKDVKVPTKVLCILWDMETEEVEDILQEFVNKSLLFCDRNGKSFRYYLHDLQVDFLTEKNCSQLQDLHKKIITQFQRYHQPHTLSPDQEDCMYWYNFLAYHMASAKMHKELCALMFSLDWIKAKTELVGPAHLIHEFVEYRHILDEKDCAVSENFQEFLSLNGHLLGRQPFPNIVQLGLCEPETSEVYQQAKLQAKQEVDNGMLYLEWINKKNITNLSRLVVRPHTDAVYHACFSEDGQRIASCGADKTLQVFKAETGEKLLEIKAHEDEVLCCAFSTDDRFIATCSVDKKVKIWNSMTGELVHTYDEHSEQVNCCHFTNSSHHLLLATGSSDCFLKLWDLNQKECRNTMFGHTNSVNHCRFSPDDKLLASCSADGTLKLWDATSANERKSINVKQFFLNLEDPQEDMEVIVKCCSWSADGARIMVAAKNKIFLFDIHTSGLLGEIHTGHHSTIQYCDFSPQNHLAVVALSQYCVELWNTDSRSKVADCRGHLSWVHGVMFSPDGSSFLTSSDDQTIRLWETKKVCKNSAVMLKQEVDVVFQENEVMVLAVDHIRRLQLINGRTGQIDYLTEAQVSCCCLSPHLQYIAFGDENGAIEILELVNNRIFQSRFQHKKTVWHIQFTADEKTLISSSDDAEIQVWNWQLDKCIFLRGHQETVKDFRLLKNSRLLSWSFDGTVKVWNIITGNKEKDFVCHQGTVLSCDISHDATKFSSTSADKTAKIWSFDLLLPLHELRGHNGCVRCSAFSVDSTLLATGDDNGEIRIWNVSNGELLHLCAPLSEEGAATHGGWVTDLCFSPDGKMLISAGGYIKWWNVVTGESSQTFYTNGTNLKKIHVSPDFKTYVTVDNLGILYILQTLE
- test protocol: blockers of Apaf-1-driven caspase-3 activation – biochemical, DEVD-Rh110 fluorescence, uHTS, primary screen (AID 489030);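 note: plate controls were DMSO wells for no effect and DEVD-CHO caspase inhibitor wells for full effect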
- condition details: reconstituted apoptosome caspase-3 activity, at 20 µM, active compounds read high
In all, about 330,000 compounds went through this assay and about 2,400 (0.73%) were called active. This excerpt belongs to a sample that is enriched for actives.
measured quantity: inhibition (%)
Entry rule: numbers only, all in %.

As a guide, the following entries are already answered.
molecule	unit	value measured
CN(C)CCCN(C(=O)c1ccc(S(=O)(=O)N2CCCc3ccccc32)cc1)c1nc2ccc(F)cc2s1	%	23.6
CC(C)=CC(=O)Nc1nnc(-c2ccc(F)cc2)s1	%	0.969
CCOc1ccc(Br)cc1S(=O)(=O)Nc1ccc(S(=O)(=O)Nc2cc(C)on2)cc1	%	9.47

What value of measured inhibition is listed for "O=C(CO/N=C/c1ccccc1OC(F)F)NC1CCCC1" ?
0.277

Also "Cc1cccc(/C=N/NC(=O)CNc2cccc3ccccc23)n1" ?
8.96

Also "CCCNC(=O)OC[C@H]1O[C@H](CCO/N=C/[C@@H](NS(=O)(=O)c2ccc(C)cc2)[C@H](C)/C=C/CC(=O)OC)C=C[C@@H]1Oc1ccc(OC)cc1" ?
9.15
